Quick reference for aptazyme ON/OFF ratio among some variants
B1: Pistol ribozyme (parent)
chain: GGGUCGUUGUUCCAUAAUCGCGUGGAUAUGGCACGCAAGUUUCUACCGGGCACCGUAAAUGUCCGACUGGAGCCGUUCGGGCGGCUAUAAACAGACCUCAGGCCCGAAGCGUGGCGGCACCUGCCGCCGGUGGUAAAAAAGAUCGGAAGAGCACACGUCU

Variants of: B1
PROTOCOL_DETAILS: aptazyme ON/OFF ratio, guanine; higher = stronger switching; co-transcriptional cleavage with and without guanine

| VARIANT | aptazyme ON/OFF ratio |
| --- | --- |
| U7C U8A G9C U10C U11G C13G | 1.06 |
| U7A U8C U10C U11G | 1.26 |
| U7A U8C U11A C12U C13A | 1.15 |
| U7G G9A U10C U11G C12G C13U | 1.06 |
| U7A U10G U11G | 1.27 |
| U7G G9A U10C C12U C13U | 1.19 |
| G9C U10A C12U C13A | 1.24 |
| U7G U8A G9A U10A U11G C12A C13A | 1.07 |
| U7C U8A G9U U11C C12U C13U | 1.21 |
| U11G C12A C13U | 1.24 |
| U7A U8C G9A U10C U11C C13A | 1.04 |
| U8A G9A U11G C12A C13U | 1.09 |
| U7A U8G G9U U10G | 1.47 |
| U7C G9U U10A U11G C12A C13A | 1.05 |
| U7A G9C U11G C13U | 1.25 |
| U7G U8G G9A U11C C12G C13U | 1.35 |
| U8A G9C U10G U11A C12G C13A | 1.26 |
| U7G U8A G9C U10C U11A C12A C13A | 1.01 |
| U7G U8A U11G C12A C13G | 1.37 |
| U7G U8G U10A U11G C12G | 1.2 |
| G9C U10C U11A C12A C13A | 1.06 |
| U7A U8G G9A U10G U11G C12U | 1.32 |
| U7G U8G U10C U11G C13U | 1.47 |
| U7G U8C U10C U11C C12A | 1.29 |
| U7A U8A G9A U10C U11C | 1.03 |
